- Test system: SW-620
- test name: NCI tumour cell line growth inhibition, 48 h
Calls of active or inactive are those of the source. Rule as the data show it: active = GI50 up to about 1.1 µM and inactive = higher.
Outcome codes: active, inactive

>  <compound>
CNC1=Nc2ccc(Cl)cc2C(OP(=O)(N2CCOCC2)N2CCOCC2)=NC1

>  <cat>
inactive

$$$$
>  <compound>
O=[N+]([O-])c1cnccc1-n1nnc2ccccc21

>  <cat>
inactive

$$$$
>  <compound>
O=C(/C=C/c1cc(Cl)cc(Cl)c1O)c1cccc(O)c1

>  <cat>
inactive

$$$$
>  <compound>
[N-]=[N+]=C1C(=O)c2ccccc2-c2ccccc21

>  <cat>
inactive

$$$$
>  <compound>
Cc1cccc(NC(=S)N/N=C(/c2ccccc2)c2ccccn2)c1

>  <cat>
active

$$$$
>  <compound>
CCCCCCCCC/C=C1\CC(CO)(COC(=O)C2CCCCC2)OC1=O (stereo unspecified)

>  <cat>
inactive

$$$$
>  <compound>
[N-]=[N+]=CC(=O)COC(=O)c1ccccc1

>  <cat>
inactive

$$$$
>  <compound>
COc1cc(C=O)c(-c2cc3c(cc2C2(C)OCCS2)OCO3)c(OC)c1OC (stereo unspecified)

>  <cat>
inactive

$$$$
>  <compound>
C=CC1(NC(=O)c2ccccc2)CCC(C(C)(C)C)CC1 (stereo unspecified)

>  <cat>
inactive

$$$$
>  <compound>
O=C1N=C(SC2OC(CO)C(O)C(O)C2O)S/C1=C\c1ccccc1 (stereo unspecified)

>  <cat>
inactive

$$$$
>  <compound>
Cc1ccc(OC2CC(n3cnc4c(=O)[nH]c(Br)nc43)OC2Oc2ccc(C)cc2)cc1 (stereo unspecified)

>  <cat>
inactive

$$$$

* * *

- Tested on: SK-OV-3
- test name: NCI tumour cell line growth inhibition, 48 h
Calls of active or inactive are those of the source. No stated cut-off is given here; in the data, active = GI50 up to about 1.1 µM and inactive = higher.
Outcome codes: True for active, False for inactive

>  <compound>
Clc1ccc(/C=N/c2ccc(Oc3ccc(Cl)cc3)c(Cl)c2)cc1

>  <cat>
False

$$$$
>  <compound>
O=C(/C=C/c1ccc(Cl)c(Cl)c1)CCN1CCN(CCC(=O)/C=C/c2ccc(Cl)c(Cl)c2)CC1

>  <cat>
False

$$$$
>  <compound>
COc1ccc(C2S/C(=C\c3ccc([N+](=O)[O-])cc3)C(=O)N2NC(=O)Cc2ccccc2)cc1 (stereo not drawn)

>  <cat>
False

$$$$
>  <compound>
COc1cc(C=O)c(-c2cc3c(cc2C2(C)OCCS2)OCO3)c(OC)c1OC (stereo not drawn)

>  <cat>
False

$$$$
>  <compound>
CC(=O)O[C@H]1C(=O)[C@@]2(C)C(C(OC(=O)c3ccccc3)[C@]3(O)CC(OC(=O)C(O)C(NC(=O)c4ccccc4)c4cccc(Cl)c4)C(C)=C1C3(C)C)[C@]1(OC(C)=O)CO[C@@H]1C[C@@H]2O (stereo partly drawn)

>  <cat>
False

$$$$
>  <compound>
OCC1OC(c2n[nH]c3c(O)ncnc23)C(O)C1O (stereo not drawn)

>  <cat>
False

$$$$
>  <compound>
O=[N+]([O-])c1cnccc1-n1nnc2ccccc21

>  <cat>
False

$$$$
>  <compound>
O=[N+]([O-])c1ccc(-n2nnc(C3=NCCCN3)c2-c2ccc(Cl)cc2)cc1

>  <cat>
False

$$$$
>  <compound>
CC(=O)C1(O)CCC2(O)C3(O)CC=C4CC(O)CCC4(C)C3CC(OC(=O)c3ccc(O)cc3)C12C (stereo not drawn)

>  <cat>
False

$$$$
>  <compound>
CCCCOc1ccc(NC(=N)Nc2ccc(Cl)cc2)cc1

>  <cat>
False

$$$$
>  <compound>
BrC1=CN2C[n+]3cc(Br)c4ccccc4c3N=C2c2ccccc21

>  <cat>
False

$$$$
>  <compound>
COc1cccc2c(NNc3ccccc3)c3ccc([N+](=O)[O-])cc3nc12

>  <cat>
False

$$$$
>  <compound>
COC(=O)/C=C1/OC(c2ccc(C)cc2)=C(Cl)C1=O

>  <cat>
False

$$$$
>  <compound>
CC(=O)OCC1=C(C)C[C@H]([C@@H](COC(C)=O)C2CCC3C4C[C@H]5O[C@]56CC=CC(=O)[C@]6(C)C4CC[C@@]32C)OC1=O (stereo partly drawn)

>  <cat>
False

$$$$
>  <compound>
c1ccc2c(c1)nnn2C1CCCCO1 (stereo not drawn)

>  <cat>
False

$$$$
>  <compound>
O=C1CN(c2cccc(C(F)(F)F)c2)C(=O)CN1CCN1CC(=O)N(c2cccc(C(F)(F)F)c2)CC1=O

>  <cat>
False

$$$$
>  <compound>
CN(CCNC(=O)c1nn(-c2ccccc2)c2c1ccc1ccccc12)CCNC(=O)c1nn(-c2ccccc2)c2c1ccc1ccccc12

>  <cat>
False

$$$$
>  <compound>
CC1(C)CC(=O)C2=C(C1)S/C(=C1/SC3=C(S1)C(=O)CC(C)(C)C3)S2

>  <cat>
False

$$$$
>  <compound>
C=CN1C(=O)[C@H](Oc2ccccc2)[C@@H]1c1ccccc1

>  <cat>
False

$$$$
>  <compound>
O=C(Nc1cnc(O)nc1O)C(Cl)Cl

>  <cat>
False

$$$$
>  <compound>
N#C/C(=C/c1cccc2ccccc12)C(=O)c1ccccc1

>  <cat>
False

$$$$
>  <compound>
C=C1C(=O)OC2CC3(CO3)C3C(O)C(O)CC3(C)CC12 (stereo not drawn)

>  <cat>
False

$$$$
>  <compound>
CCCCCCCCCCCC(=O)OC[C@@H](C[As](=O)(O)O)OC(=O)CCCCCCCCCCC

>  <cat>
False

$$$$
>  <compound>
CCCCCCOc1ccc(C(=O)NOC)cc1

>  <cat>
False

$$$$
>  <compound>
COC1=CC(=O)C2=C(C1=O)[C@H]1CC[C@]3(C)[C@@H](OC(C)=O)CC[C@H]3[C@@H]1CC2

>  <cat>
False

$$$$
>  <compound>
CCOC(CN(C)C(=S)Nc1cccc2ccccc12)OCC

>  <cat>
False

$$$$
>  <compound>
CCOC(=O)c1sc2nc(SC)nc(Nc3ccc(OC)c(OC)c3)c2c1N

>  <cat>
False

$$$$
>  <compound>
O=C(OCc1ccccc1)N1CCN(C(=O)OCc2ccccc2)CCN(C(=O)OCc2ccccc2)CCN(C(=O)OCc2ccccc2)CCN(C(=O)OCc2ccccc2)CC1

>  <cat>
False

$$$$
>  <compound>
CCOC(=O)c1ccc(Nc2cnc3cc(C(F)(F)F)ccc3n2)cc1

>  <cat>
False

$$$$
>  <compound>
CC(=O)CC(=O)CCC(=O)Nc1cccc(C(F)(F)F)c1

>  <cat>
False

$$$$
>  <compound>
CC(=O)c1[nH]c(NC(C)C)c(C(=S)Nc2ccccc2)c1N

>  <cat>
False

$$$$
>  <compound>
COC1=CC(=O)c2c(cc(COP(N)(=O)N(CCBr)CCBr)n2C)C1=O (stereo not drawn)

>  <cat>
True

$$$$
>  <compound>
Cn1c(=O)c(C(=O)NC(=O)NCCCCCOC(=O)CCCCCCCCCCC(=O)OCCCCCNC(=O)NC(=O)c2cn(Cc3ccccc3)c(=O)n(C)c2=O)cn(Cc2ccccc2)c1=O

>  <cat>
False

$$$$
>  <compound>
CC(=O)Nc1nc(C)c(S(=O)(=O)NC(=O)NC2NC(=O)NC2=O)s1 (stereo not drawn)

>  <cat>
False

$$$$
>  <compound>
Cc1ccc(S(=O)(=O)NC(=O)NCC(N)=O)cc1

>  <cat>
False

$$$$
>  <compound>
COc1cccc(N2C(=O)/C(=C\c3ccccc3)SC2c2cc(OC)c(OC)c(OC)c2)c1 (stereo not drawn)

>  <cat>
False

$$$$
>  <compound>
COc1ccc(N[C@H](C[S+]([O-])c2ccc(C)cc2)C(F)(F)F)cc1 (stereo partly drawn)

>  <cat>
False

$$$$
>  <compound>
COC(NC(=O)Nc1ccccc1C)(C(F)(F)F)C(F)(F)F

>  <cat>
False

$$$$
